endpoint_name: melting point

What does the record list as melting point for `CCNC(=O)Nc1cn2ccc(-c3c(C)noc3C)cc2n1` ?
204 to 206 °C

What does the record list as melting point for `O=C(NC12CC3CC(CC(C3)C1)C2)n1cc(F)c(=O)[nH]c1=O` ?
> 260 °C

What does the record list as melting point for O=C1CCC(N2Cc3cc(CNC(=S)Nc4ccc(SC(F)(F)F)cc4)ccc3C2=O)C(=O)N1 (centres undefined) ?
229 to 231 °C

What does the record list as melting point for `O=CNc1ccc(C(=O)N(CCN2CCC(C(=O)c3ccc(F)cc3)CC2)c2cccnc2)cc1` ?
147 to 148 °C

What does the record list as melting point for `CN1CCc2c(ccc3[nH]c(=O)c(=O)[nH]c23)C1` ?
310 to 335 °C

What does the record list as melting point for O=[N+]([O-])c1ccc(CSC(=S)N2Cc3[nH]c4ccccc4c3CC2CO)cc1 (centres undefined) ?
193 to 194 °C

---

endpoint_name: melting point

Below, 3 compounds whose answers are already recorded.
Cc1onc(CCc2ccccc2)c1C(=O)O
154 to 156 °C
COc1ccccc1CNc1ccc2cc(Nc3cccc(C)n3)ccc2n1
134 °C
c1ccc(-c2nn3ccccc3c2-c2ccncc2)cc1
166 to 167 °C

What does the record list as melting point for `NCCOc1cccc2c1CC(=O)N2` ?
146 to 148 °C

What does the record list as melting point for `O=S(=O)(NCCCCOc1ccc(-n2ccnc2)cc1)c1ccc(Br)cc1` ?
134 to 136 °C

What does the record list as melting point for `CSCC[C@@H](NC(=O)OC(C)(C)C)C(=O)Nc1ccc(N2C[C@H](CNC(=O)c3ccc(Cl)s3)OC2=O)cc1` ?
183 °C

What does the record list as melting point for `Cn1cc(C(N)=O)c(Nc2ccc(C#N)cc2F)cc1=O` ?
261 to 266 °C

What does the record list as melting point for `Cc1ccc(S(=O)(=O)N2CCN(S(=O)(=O)c3ccc(C)cc3)[C@@H](c3ccccc3)C2)cc1` ?
258 °C

What does the record list as melting point for `O=C(N=NC=C(Cl)Cl)c1ccccc1` ?
50 to 51 °C

What does the record list as melting point for `Cc1cccc(C)c1Sc1nc[nH]n1` ?
126 to 127 °C

What does the record list as melting point for `CC1(C)CCCC(Cl)(Cl)C(=O)N1` ?
148 to 155 °C

---

Entries and their measured melting point follow.

Below, 8 molecules whose answers are already recorded.
CC(=O)OC1CSC(Oc2cncc(Cl)c2)C(OC(C)=O)C1OC(C)=O (stereo not given)
160 °C
Cn1c(CO)cc2cccc(F)c21
89 to 91 °C
CS(=O)(=O)c1ccc(-c2cnn(-c3ccc(F)c(F)c3)c(=O)c2CCC=C2CC2)cc1
128 to 129 °C
Cc1ccccc1NC(=O)Nc1ccc(C(=O)N2Cc3ccccc3Cc3ccccc32)cc1
188 to 190 °C
O=S1(=O)N=CN(C2CC2)c2cccc(F)c21
156 to 157 °C
C=CCNC1=NS(=O)(=O)c2sc(Cl)cc2N1
217 to 221 °C
Cc1cc(C)cc(CC(C)(C)NCC(O)c2cc(OCc3ccccc3)cc3c2OCC(=O)N3)c1 (stereo not given)
220 to 222 °C
CC(=O)OCC(OC(C)=O)c1nc2c(C(F)(F)F)cccc2c(O)c1C(=O)Nc1nccs1 (stereo not given)
270 °C

What does the record list as melting point for `CCN1C(=O)C(C)(C)C(=O)N(C)c2cc(CCCN(CCn3ccc4ccoc4c3=O)Cc3cccnc3C)ccc21` ?
106 to 115 °C

What does the record list as melting point for `Nc1nccc(OCC(F)(F)F)c1N` ?
126 to 128 °C

What does the record list as melting point for `Cc1noc(C)c1S(=O)(=O)N(C)c1ccc(Cl)cc1[N+](=O)[O-]` ?
99 to 101 °C

What does the record list as melting point for `CCn1c(=Nc2ccccc2)sc2ncccc2c1=O` ?
117 to 118 °C

What does the record list as melting point for `CN(C)Cc1ccc(CSCCNC2=NS(=O)(=O)N=C2N2CCOCC2)o1` ?
122 to 127 °C

What does the record list as melting point for `CNc1ccc2cc(OC)ccc2c1N=O` ?
261 °C

---

endpoint_name: melting point

Below, 5 compounds whose answers are already recorded.
O=C(NCCN1CCC(Oc2ccc(Cl)c(Cl)c2)CC1)c1nnc(Nc2ccccc2Cl)o1
161 to 162 °C
CS(=O)(=O)c1ccc(C=Cc2ccc(OCCO)cc2)cc1
224 to 226 °C
O=CC(=Cc1ccc(Cl)cc1Cl)C1CCOCC1
82 to 85 °C
NNc1nc(C(F)(F)F)nc(-c2ccccc2)c1-c1ccccc1
182 to 186 °C
Cc1ccc(-c2ccc(Cl)cc2)cc1C1C(=O)COC(C)(C)C1=O (stereo not given)
186 to 188 °C

Now for another entry.
What does the record list as melting point for `O=c1c2ccccc2n(CCc2ccccc2)c(=O)n1S(=O)(=O)c1ccc(Cl)cc1` ?
200 to 202 °C

---

endpoint_name: melting point

Below, 2 compounds whose answers are already recorded.
Cc1ccc(S(=O)(=O)OCC(C)C2CCC3C4CC=C5CC(O)CC(O)C5(C)C4CCC23C)cc1 (stereo not given)
91 to 99 °C
CCOc1ccc(S(=O)(=O)N(CC(=O)NN=C2C(=O)Nc3ccccc32)c2ccc(C)cc2)cc1
130 to 131 °C

What does the record list as melting point for `Cn1ncc(/C=C/C(=O)Nc2ccc(CN3C(=O)COC3=O)cc2)c1-c1ccc(F)cc1` ?
239 to 240 °C

What does the record list as melting point for `c1ccc(Nc2nc(-c3cccnc3)nc3ccccc23)cc1` ?
173 to 178 °C

What does the record list as melting point for `O=C(COc1ccc(Cc2ccc(Cl)cc2)cc1)OCc1cccnc1` ?
77 to 78 °C

---

Entries and their measured melting point follow.

What does the record list as melting point for `CCOC(=O)C(C)(C)CCCOc1ccc(OCCn2c(=O)sc3cc(C(=O)c4ccccc4)ccc32)cc1` ?
82 to 84 °C

What does the record list as melting point for COC(=O)Nc1nc2cc(F)c(OC(C)c3c(Cl)ccc(F)c3Cl)cc2[nH]1 (stereo unspecified) ?
245 to 250 °C

What does the record list as melting point for `CCC(=O)Nc1cc(-c2ccnc(Nc3cccc(Cl)c3)n2)ccn1` ?
215 to 216 °C

What does the record list as melting point for CC12CCC(Oc3c(F)c(F)c(C(F)(F)F)c(F)c3F)=CC1=CCC1C2CCC2(C)C(c3cccnc3)=CCC12 (stereo unspecified) ?
166 °C

What does the record list as melting point for `Nc1ccc(C(=O)NO)c(O)c1` ?
180 to 181 °C

---

endpoint_name: melting point

CC(CCc1ccc(OCCO)cc1)NCC(O)c1cccc(Cl)c1 (centres undefined)
103 to 105 °C
O=C(Nc1ccc(-n2nc(C(F)(F)F)cc2C(F)(F)F)cc1)c1cccc(I)c1
192 to 193 °C
CCCC1=C(C#N)C(c2ccccc2Br)c2c[nH]nc2N1 (centres undefined)
237 °C
CC(C)Cn1nc(-c2ccc(F)c(F)c2)cc(COS(C)(=O)=O)c1=O
113 °C
O=C(Oc1ccc(C(=C2CCCCC2)c2ccc(OC(=O)c3ccccc3)c(OC(=O)c3ccccc3)c2)cc1OC(=O)c1ccccc1)c1ccccc1
176 °C
CC(=O)NCCn1ccc2ncnc(Nc3ccc(Oc4cccc5sncc45)c(Br)c3)c21
132 to 135 °C
NS(=O)(=O)CCC(O)COCc1ccccc1 (centres undefined)
94 to 98 °C
COc1ccc(N2CCN(c3ccc(N)cn3)CC2)cc1
134 to 135 °C

What does the record list as melting point for C=CCOc1ccc([C@H]2CCN(C(=O)OC(C)(C)C)C[C@@H]2O)cc1 (racemic) ?
113 °C

What does the record list as melting point for `O=C1C=C(c2ccc(O)cc2)S(=O)(=O)c2ccccc21` ?
222 to 224 °C

What does the record list as melting point for `CON(C)C(=O)c1ccc(-c2ccc(C)cc2)o1` ?
54 to 58 °C

What does the record list as melting point for CCc1cc(C2(c3ccc(F)c(-c4cnccc4F)c3)N=C(N)N(C)C2=O)cc(CC)n1 (centres undefined) ?
92 to 100 °C

What does the record list as melting point for CC(C)C1C(=O)C(c2ccc(S(C)(=O)=O)cc2)=C1c1ccccc1 (centres undefined) ?
98 °C

---

Entries and their measured melting point follow.

Below, 10 molecules whose answers are already recorded.
CC1CN(c2c(F)cc3c(=O)c(C(=O)O)cn(C4CC4)c3c2Cl)CC1NC(=O)OC(C)(C)C (centres undefined)
210 to 213 °C
CCCCCCCCCCCCC1N(C)c2cccc3cccc(c23)N1C
30 to 32 °C
Cc1cccc(C)c1NC(=O)C(C)N1CCN(CCC2CCOc3ccccc32)CC1 (centres undefined)
130 °C
Cc1cc(-n2ccnc2)c2cccc(OCc3c(Cl)ccc(S(=O)(=O)N4CCC[C@H]4C(=O)NCCO)c3Cl)c2n1
140 °C
CC1(C)COC(=O)N1c1nc(-c2ccc([N+](=O)[O-])cc2)cs1
176 to 179 °C
CC(C)(C)OC(=O)N1CCN(CC(=O)O)CC1
195 to 197 °C
Cc1nc(C)c2cc(-c3c(Cl)cccc3Cl)c(N)nc2n1
239 to 240 °C
CCN1C(=O)c2cccnc2Nc2cccc(C)c21
186 to 188 °C
CC(=O)NC[C@H]1CN(c2cc(F)c(N3CCC(n4nnc(N5CCN(C(C)=O)CC5)n4)CC3)c(F)c2)C(=O)O1
200 to 205 °C
Cn1nccc1CCS(=O)Cc1ccc(OCc2coc(/C=C/c3ccc(C(F)(F)F)cc3)n2)cc1 (centres undefined)
172 to 174 °C

What does the record list as melting point for `CCOC(=O)C(=Cc1cccc([N+](=O)[O-])c1)C(C)=O` ?
103 to 106 °C

What does the record list as melting point for Cn1c2c(ccc1=O)C(NCCc1ccc(Cl)cc1)CCC2 (centres undefined) ?
110 to 112 °C

What does the record list as melting point for `Cc1[nH]c(=S)[nH]c1-c1cc(C(C)(C)C)c(O)c(C(C)(C)C)c1` ?
288 to 290 °C

What does the record list as melting point for `N#Cc1c(N2CCN(C(=O)c3ccco3)CC2)c2cc(Cl)cnc2n(Cc2cccc(F)c2)c1=O` ?
134 °C

What does the record list as melting point for `Cc1cc(-c2ccc(C(F)(F)F)cc2)cc(-c2ccnc(-c3cccc(S(N)(=O)=O)c3)n2)n1` ?
> 250 °C

What does the record list as melting point for `O=c1[nH]c2cc(Br)ccc2c(O)c1-c1ccccc1` ?
343 to 345 °C

What does the record list as melting point for `C=C(CC(=O)O)c1ccc(-c2ccc(F)cc2F)cc1` ?
109 to 110 °C

What does the record list as melting point for `Oc1ccccc1Oc1ccc(Cl)cn1` ?
97 to 100 °C

What does the record list as melting point for `ON=C(c1ccc(O)c(Cl)c1Cl)c1cccc2ccccc12` ?
145 to 160 °C

What does the record list as melting point for CC(=O)OCC1OC(n2cc(F)c(=O)[nH]c2=O)CC1OCc1ccccc1 (centres undefined) ?
87 to 88 °C

What does the record list as melting point for `Nc1nc2c(sc(=O)n2Cc2ccccc2)c(=O)[nH]1` ?
> 320 °C

What does the record list as melting point for CCOC(=O)C1=C(C)NC(=S)N(C(=O)OCC)C1c1cccc(OC)c1 (centres undefined) ?
107 to 109 °C

What does the record list as melting point for `CCOC(=O)c1sc(Cc2ccccc2)nc1O` ?
97 to 98 °C

What does the record list as melting point for `Cc1ccc(Cc2cnc(CCCOc3cc(CN4CCCCC4)ccn3)[nH]c2=O)cn1` ?
99 to 100 °C
